Cited source for all entries: paper PMC10547674

Reported IC50 at 24 h values for the following molecules.
ASSAY NOTES: MTT cell viability
Format: cell-based, Murine
CONDITION DESCRIPTION: mouse, RAW 264.7 macrophage cells, RAW 264.7 cells, read-out: IC50 mean ± SD (cytotoxic effect)
Supply the numeric figure in µg/mL, leaving out any unit text.

Sure, the documented IC50 at 24 h for CSC(O)(N1C(=O)CNC(=O)C1Cc1c[nH]c2ccccc12)N1C(=O)CC(=O)N2C(=O)c3cc(O)ccc3CC21 (centres unmarked) [Compound 4, asterrine] is 449

Okay, next one:
Sure, the documented IC50 at 24 h for CCC/C=C\C/C=C\CCCCC(=O)OCC(COC(=O)CCCC/C=C\C/C=C\CCC)OC(=O)CCCC/C=C\CCCCC [Compound 1] is 858
